biological target: Ectonucleotide pyrophosphatase/phosphodiesterase family member 3 (Homo sapiens, UniProt O14638)
Sequence (O14638 whole entry): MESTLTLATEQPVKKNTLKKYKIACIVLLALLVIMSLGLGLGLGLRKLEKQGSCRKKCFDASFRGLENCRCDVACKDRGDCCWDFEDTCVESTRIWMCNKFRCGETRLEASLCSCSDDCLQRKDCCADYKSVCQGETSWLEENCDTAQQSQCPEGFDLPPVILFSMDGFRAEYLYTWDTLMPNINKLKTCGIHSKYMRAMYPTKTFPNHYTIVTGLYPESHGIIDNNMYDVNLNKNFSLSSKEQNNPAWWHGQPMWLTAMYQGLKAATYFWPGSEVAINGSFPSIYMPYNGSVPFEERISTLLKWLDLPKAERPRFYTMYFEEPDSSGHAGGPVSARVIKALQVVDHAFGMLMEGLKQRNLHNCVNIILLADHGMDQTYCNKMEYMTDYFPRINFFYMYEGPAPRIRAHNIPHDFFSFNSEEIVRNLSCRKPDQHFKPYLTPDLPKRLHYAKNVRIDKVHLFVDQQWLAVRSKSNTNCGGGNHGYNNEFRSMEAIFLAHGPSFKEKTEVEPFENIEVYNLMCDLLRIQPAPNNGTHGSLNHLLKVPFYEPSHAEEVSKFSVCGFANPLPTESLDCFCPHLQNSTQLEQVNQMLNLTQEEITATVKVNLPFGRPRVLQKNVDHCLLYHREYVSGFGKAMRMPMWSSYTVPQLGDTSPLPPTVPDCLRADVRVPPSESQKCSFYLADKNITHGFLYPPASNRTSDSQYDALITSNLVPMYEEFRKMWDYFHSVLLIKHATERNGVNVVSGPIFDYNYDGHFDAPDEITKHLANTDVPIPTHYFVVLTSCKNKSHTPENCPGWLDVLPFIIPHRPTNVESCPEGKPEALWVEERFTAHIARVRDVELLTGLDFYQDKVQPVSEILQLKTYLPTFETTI
measurement.label: IC50

Consider the compound shown here: CCn1nc(Cl)c2c(NCC3CCN(S(=N)(=O)CCNC(C)=O)CC3)ccnc21 (stereo unspecified) [US20260049084, Compound 14K] What is its recorded IC50?
> 1000 nM

* * *

Molecular target: Ectonucleotide pyrophosphatase/phosphodiesterase family member 1 (Homo sapiens)
Sequence (P22413 whole entry): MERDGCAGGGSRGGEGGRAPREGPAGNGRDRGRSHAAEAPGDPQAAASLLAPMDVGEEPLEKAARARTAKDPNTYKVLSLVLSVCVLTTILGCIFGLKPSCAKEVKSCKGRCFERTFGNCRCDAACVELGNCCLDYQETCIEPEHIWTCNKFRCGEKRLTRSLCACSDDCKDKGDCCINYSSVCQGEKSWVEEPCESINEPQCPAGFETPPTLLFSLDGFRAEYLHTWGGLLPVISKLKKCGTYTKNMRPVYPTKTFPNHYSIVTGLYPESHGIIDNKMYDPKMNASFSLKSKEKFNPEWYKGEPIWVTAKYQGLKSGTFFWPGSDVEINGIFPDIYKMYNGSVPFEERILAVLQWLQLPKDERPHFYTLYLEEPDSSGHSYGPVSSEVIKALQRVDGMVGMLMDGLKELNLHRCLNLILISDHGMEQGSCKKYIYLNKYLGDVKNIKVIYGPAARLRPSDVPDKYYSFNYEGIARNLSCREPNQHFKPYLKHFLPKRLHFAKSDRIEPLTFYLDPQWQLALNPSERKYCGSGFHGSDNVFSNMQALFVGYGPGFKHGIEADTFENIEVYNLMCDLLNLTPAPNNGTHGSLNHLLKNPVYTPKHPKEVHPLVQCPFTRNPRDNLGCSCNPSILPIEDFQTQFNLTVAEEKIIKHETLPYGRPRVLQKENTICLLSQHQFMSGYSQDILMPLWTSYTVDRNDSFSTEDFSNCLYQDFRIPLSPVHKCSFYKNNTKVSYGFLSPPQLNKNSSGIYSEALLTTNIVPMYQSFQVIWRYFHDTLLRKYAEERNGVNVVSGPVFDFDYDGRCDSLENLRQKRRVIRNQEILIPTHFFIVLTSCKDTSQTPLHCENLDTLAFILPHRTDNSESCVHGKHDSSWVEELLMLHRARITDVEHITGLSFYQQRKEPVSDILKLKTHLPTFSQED
Test: ENPP1 cGAMP Biochemical Assay
pIC50: −log10 of the molar value.
measurement.label: pIC50

Consider the compound shown here: CCn1nc(Cl)c2c(NCC3CCN(S(=N)(=O)CCNC(C)=O)CC3)ccnc21 (stereo unspecified) [US20260049084, Compound 14K] What is its recorded pIC50?
> 8.00
